system: MS2 coat protein; test: apparent KD of MS2 coat protein; designed switch direction (-1 OFF switch, 1 ON switch): 1; higher = weaker reporter binding; conditions: Eterna round: R98; input ligand: none
resultType: apparent KD of MS2 coat protein (nM)
Hi! Could you send only the number? It should be in nM, unit omitted.

Before answering, review these 4 worked examples.
UCACUCACGUUAGGAUAUGGAUCGGAAAACGAUCCAGAAGGAACCUGCAAACCUGAGGAUCACCCAGGUUCCAAUAACGAGUGA [SameSame 7 - Jieux - Same State NG 1] = 368
UUACGUCCCGUUUACAUGAGGAUCACCCAUGUCGAAAGAACCGAGGAUAUGCUACCUAGUUGGUAGCAGAAGGCGGAAACGUCG [salish99_SSNG3_r02_008] = 25.9
GCGGGCCUCACAGGAUAUCUGGUCCCGACAUGAGGAUCACCCAUGUAGGGCAGCUUAAGAAUGCCAGAGAAGGGUGACCAAUAU [Xexemaeron] = 315
GCAGAAGGUGCAGAGGAUCACCCUGUAAGGAUAUGCAUUAGCAAGGAUAUACAGAGGAUCACCCUGUAGAAGGUGCACUACUCU [pwkr2 ssNG3 DX.2] = 2070

query: Look up apparent KD of MS2 coat protein: CACACAUGGUGAGGAUAUGCAAAGGAUCACCUUGUAGAAGGCAUCAGGGUAGAAGGUGCAAGGAUCACCUGUAAGGAUAUAUCC [pwkr2 ssNG1 DX.24]
result: 1210

query: Look up apparent KD of MS2 coat protein: ACAUACUUUCGAGGAUAUCGGUGAUAAAUUUGACGAGAAGGCGAUAAAAGAUAUAAUCUUAUAGACAUGAGGAUCACCCAUGUA [JR_SSNG1_Sub015]
result: 43.3

query: Look up apparent KD of MS2 coat protein: UGUUUGAGCAUAGGAUAUACUGGGAAGGUCCACAUGAGGAUCACCCAUGUAGAGGCUGUUAGACAGUAGAAGGGUGAUCCGAUA [Zariatbege]
result: 9.94

###

tested on: MS2 coat protein; experiment: apparent KD of MS2 coat protein; designed switch direction (-1 OFF switch, 1 ON switch): 1; higher = weaker reporter binding; settings: input ligand: microRNA oligo, concentration not stated
resultType: apparent KD of MS2 coat protein (nM)
Hi! Could you send only the number? It should be in nM, unit omitted.

Before answering, review these 3 worked examples.
UUGAAGAAUUAAGGAUAUCGAGUCAAGAUGUUAAACAUGAGGAUCACCCAUGUGGGUUGCGGUAUCGAGAAGGUAAAUAAGAAG [Mat - Same State NG 2 - JL mod - D54] (Eterna round: R96, puzzle: Same State NG 2) = 29.6
GGAGAGAAGUGAGGAUAUGCAUGGAAGACACAUGAGGAUCACCCAUGUGGGAGGGAGACCGGGAGGUAGAAGGCACUGGGAAGA [AK SSNG2-V2-25.1] (Eterna round: R96, puzzle: Same State NG 2) = 42.3
UUGAAGAAUUAAGGAUAUCGAGUCAAGAUGUUAAACAUGAGGAUCACCCAUGUGGGUUGCGGUAUCGAGAAGGUAAAUUACAAG [JL SSNG2 1.41] (Eterna round: R96, puzzle: Same State NG 2) = 26.9

Turning to the following sequence.
query: Look up apparent KD of MS2 coat protein: UGGUACAUGGGAGGAUAUCCUCAGGAGACAUGAGGAUCACCCAUGUAAUUUAAGCCGAAAGGCAUGGAGAAGGCCCAUGUACCU [JL SSNG1 3.80] (Eterna round: R96, puzzle: Same State NG 2)
result: 94.1

###

system: MS2 coat protein; assay: apparent KD of MS2 coat protein; designed switch direction (-1 OFF switch, 1 ON switch): -1; higher = weaker reporter binding; details: Eterna round: R95; input ligand: FMN 200 uM
Listed below: apparent KD of MS2 coat protein values for each entry.
Hi! Could you send only the number? It should be in nM, unit omitted.

Before answering, review these 2 worked examples.
GAAAAGGUAGGAUAUACGAAAAAAAAGGGUAGAAAAAAUACACAUGAGGAUCACCCAUGUAGAAGGACCAAAAG [salish99_ex2_r3_073] (puzzle: Exclusion 2) = 138
CUGGUCCGAGGAUAUAUUAUGUGAAACAUGAGGAUCACCCAUGUAAUAUGAUGGAUGUAAAUAGAAGGCGGGCUAG [Mat - Exclusion 5 - JL mod - D26] (puzzle: Exclusion 5) = 30.8

Turning to the following sequence.
query: Look up apparent KD of MS2 coat protein: CAUACUCAAGUCAGGAUAUAGAGUCGGAUACGGAUCUAGAAGGGACAUGAGGAUCACCCAUGUAGAGAGUAAAG [EX-4 Malc #25] (puzzle: Brourd's mod of Exclusion 4)
result: 88

###

tested on: MS2 coat protein; assay: apparent KD of MS2 coat protein; higher = weaker reporter binding; settings: Eterna round: R107; input ligand: arginine 13.2 mM
Everything with apparent KD of MS2 coat protein lower than 30 nM is f; everything else, including exactly 30 nM, is t.

Answered cases to consult:
ACAUGAGGAUCACCCAUGUAGCCUAGGGAAGGAGCGGCAUAAAAGCCAGGUAGGUCGCCCGCAUGAGGAUCACCCAUGUCAAGGA [Same State Arginine A GF7] = t
UGGUAGCCACACUUCAAACAUCGACAAGAUACCAGUUAAUCAACGAACCCUUGGCAGCUUCGUACAUGAGGAUCACCCAUGUGGA [theeternabot_exclusion_MS2_Theo_A_6] = f
UGCACUCAUGCGGCCGCCACUGUCGGCCGCCACUAAACAUGAGGAUCACCCAUGUAGGACCGGGACAGGACCGGGCAUGGGUGCU [TryBS - #DoubleAptamer 2] = f
GGUUACUCUACGGCCGCCACUGAUUAAUUAUAAUCCUGUACAUAAACAUGAGGAUCACCCAUGUACAGGACCGGGUAGUGUAACC [Tryptophan B 10] = t

query: Does the reported apparent KD of MS2 coat protein for AAUAAUCUAGGUGAUACCAGCUCAACAUGAGGAUCACCCAUGUGCUCAUGAAGAGCUGAGAGCCCUUGGCAGCACCUAGAUAAUA [(Theo1)-(Ms2)-(M)'-(T)'-(Theo2)_Design2] fall at or above the 30 nM mark?
result: t

###

system: K4 kissing-loop RNA reporter; assay: apparent KD of K4 kissing-loop reporter; higher = weaker reporter binding; conditions: Eterna round: R107; input ligand: none;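 further: bound reporter read as fluorescence of individual clusters on recovered sequencing chips by microscopy, with normalized cluster intensities fitted with a binding model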
Listed below: apparent KD of K4 kissing-loop reporter values for each entry.
Hi! Could you send only the number? It should be in nM, unit omitted.

query: Fill in the recorded apparent KD of K4 kissing-loop reporter for this sequence, with K4 kissing-loop RNA reporter as test system: GGGCUGGUGCUAGGAUAUGCGAUGAAUGCUCAGGAAACCUUGAGUCCGCAGUGAUGUUGCGGCACCGCAGAAGGAGCUUAGGCUC [Esbequ]
result: 222

query: Fill in the recorded apparent KD of K4 kissing-loop reporter for this sequence, with K4 kissing-loop RNA reporter as test system: CGUCGGUAGUGAUGUUGCCACGACGCUUUUAAGGAUAUAAGCUAAGUUAGAAGGUAAGAGAGUCAGCCCGGUGGCCUUAGAGUAG [theeternabot_exclusion_KL_FMN_A_17]
result: 195

query: Fill in the recorded apparent KD of K4 kissing-loop reporter for this sequence, with K4 kissing-loop RNA reporter as test system: CGCUGGGCGAGUGAUGUUCGCUCACGUGAUACCAGUGCCAUCCAACACCCUUGGCAGCACGCGGGCAGUGAUGUUGUCCUUAGUG [Exclusion Theophylline A GF8]
result: 128

###

test system: MS2 coat protein; experiment: apparent KD of MS2 coat protein; higher = weaker reporter binding; conditions: Eterna round: R107; input ligand: arginine 13.2 mM
Listed below: apparent KD of MS2 coat protein values for each entry.
Hi! Could you send only the number? It should be in nM, unit omitted.

UAACAUGAGGAUCACCCAUGUAUACUUAGUCGAGGACCGGUACGGCCGCCACUCGUACUUCAAGAUUUGGCGGAAAAUGUAUGUA [JR_ExcTryptoA_Sub021] = 14.2
ACGACGCAUAGUGAUACCAGUACAACAUGAGGAUCACCCAUGUCACAUAUGUUGUAAUAGUGCCCUUGGCAGCACUAUGCGUCAG [SSTheo B #3] = 94.4
AAGGUGAUCCGUGAUACCAGCUCAACAUGAGGAUCACCCAUGUAACGGACGAAAGUCCGGAGCCCUUGGCAGCACGGUUGCCAAG [(M)'-(Theo1)-(Ms2)-(Theo2)-(M'')-(T2)'_Design1b] = 29.4
ACAGGUACGCCUAUUAAAAUAAAACACCUACGAGGACCGGUACGGCCGCCACUCGGGUGACAUGAGGAUCACCCAUGUGGCUAAA [Ceeron] = 101
UUUACAUGAGGAUCACCCAUGUUCCAUGAUACCAGACAUGAAAAUGUCCCUUGGCAGCAUGAAUGAUUCAUAGGAUAAUUAUGGG [Medlanky] = 79.7

Turning to the following sequence.
query: Look up apparent KD of MS2 coat protein: GCGGAAUAAUCGGCCGCCACUAUGAUAUAGGAAACUAUAACAUGAGGAUCACCCAUGUAUCCUCAUAGGACCGGGAUUAAAACGC [TrypB - CS]
result: 39.7
